tested on: Nucleic Acid; experiment: DNA binding activity as denaturation temperatures on AT to poly (dA)-poly(dT) normalized to ethidium bromide; assay type: functional

| sample-smiles | ΔTm |
| --- | --- |
| N=C(N)c1ccc(NCCCNc2ccc(C(=N)N)cc2[N+](=O)[O-])c([N+](=O)[O-])c1 | 2.7 |
| N=C(N)c1ccc(NCCCCCCNc2ccc(C(=N)N)cc2)cc1 | 1.3 |
| N=C(N)c1ccc(OCCOc2ccc(C(=N)N)cc2[N+](=O)[O-])c([N+](=O)[O-])c1 | 1 |
| N=C(N)c1ccc(NCCCCCCNc2ccc(C(=N)N)cc2N)c(N)c1 | 1.5 |
| N=C(N)c1cccc(OCCCCCOc2cccc(C(=N)N)c2)c1 | 0.8 |
| N=C(N)c1ccc(OCCCCCOc2ccc(C(=N)N)cc2[N+](=O)[O-])c([N+](=O)[O-])c1 | 2.2 |
| N=C(N)c1ccc(NCCCNc2ccc(C(=N)N)cc2N)c(N)c1 | 2.6 |
| N=C(N)c1ccc(OCCCCCCOc2ccc(C(=N)N)cc2N)c(N)c1 | 1.9 |
| N=C(N)c1ccc(OCCCCCOc2ccc(C(=N)N)cc2Cl)c(Cl)c1 | 2.5 |
| N=C(N)c1ccc(NCCCCCNc2ccc(C(=N)N)cc2N)c(N)c1 | 2.1 |

* * *

tested on: Nucleic Acid; experiment: Denaturation temperature change on binding on GC to poly(dGC)-poly(dGC); format: functional
Measured ΔTm accompanies every entry in the list below.
measured-attribute: ΔTm

| sample-smiles | measured-attribute | measured-number |
| --- | --- | --- |
| N=C(N)c1ccc(NCCCNc2ccc(C(=N)N)cc2)cc1 | ΔTm | 3 |
| N=C(N)c1ccc(NCCNc2ccc(C(=N)N)cc2N)c(N)c1 | ΔTm | 3 |
| N=C(N)c1ccc(OCCCCCOc2ccc(C(=N)N)cc2Cl)c(Cl)c1 | ΔTm | 4.6 |
| COc1cc(C(=N)N)ccc1OCCCCOc1ccc(C(=N)N)cc1OC | ΔTm | 1.1 |
| N=C(N)c1ccc(OCCCCCOc2ccc(C(=N)N)cc2[N+](=O)[O-])c([N+](=O)[O-])c1 | ΔTm | 3.2 |
| N=C(N)c1cccc(OCCCCCOc2cccc(C(=N)N)c2)c1 | ΔTm | 2.2 |
| CC[n+]1c(-c2ccccc2)c2cc(N)ccc2c2ccc(N)cc21 | ΔTm | 9.9 |
| N=C(N)c1ccc(NCCCCCCNc2ccc(C(=N)N)cc2)cc1 | ΔTm | 2.9 |
| N=C(N)c1ccc(NCCCCCNc2ccc(C(=N)N)cc2)cc1 | ΔTm | 4.4 |
| N=C(N)c1ccc(NCCCNc2ccc(C(=N)N)cc2[N+](=O)[O-])c([N+](=O)[O-])c1 | ΔTm | 5 |
| N=C(N)c1ccc(OCCOc2ccc(C(=N)N)cc2)cc1 | ΔTm | 1.3 |

* * *

system: Nucleic Acid; assay: Denaturation temperature change on binding to AT to poly (dA)-poly(dT); format: functional
Kindly apply the following: t if ΔTm is less than 20, f in every other case.

| sample-smiles | class-assignment |
| --- | --- |
| N=C(N)c1ccc(NCCCNc2ccc(C(=N)N)cc2)cc1 | f |
| N=C(N)c1ccc(NCCCCCNc2ccc(C(=N)N)cc2N)c(N)c1 | f |
| N=C(N)c1ccc(NCCCNc2ccc(C(=N)N)cc2[N+](=O)[O-])c([N+](=O)[O-])c1 | f |
| N=C(N)c1ccc(NCCCCCCNc2ccc(C(=N)N)cc2N)c(N)c1 | t |
| N=C(N)c1cccc(OCCCCCCOc2cccc(C(=N)N)c2)c1 | t |
| N=C(N)c1ccc(-c2cc3ccc(C(=N)N)cc3[nH]2)cc1 | f |
| COc1cc(C(=N)N)ccc1OCCCCCOc1ccc(C(=N)N)cc1OC | f |
| N=C(N)c1ccc(NCCCCCNc2ccc(C(=N)N)cc2[N+](=O)[O-])c([N+](=O)[O-])c1 | f |
| N=C(N)c1cccc(OCCCOc2cccc(C(=N)N)c2)c1 | t |
| N=C(N)c1cccc(OCCCCCOc2cccc(C(=N)N)c2)c1 | t |
| N=C(N)c1ccc(OCCCCOc2ccc(C(=N)N)cc2)cc1 | t |
| N=C(N)c1ccc(OCCCCCOc2ccc(C(=N)N)cc2[N+](=O)[O-])c([N+](=O)[O-])c1 | f |
| N=C(N)c1ccc(OCCCCCOc2ccc(C(=N)N)cc2Cl)c(Cl)c1 | f |
| N=C(N)c1ccc(NCCNc2ccc(C(=N)N)cc2N)c(N)c1 | t |
| N=C(N)c1ccc(OCCCCOc2ccc(C(=N)N)cc2N)c(N)c1 | t |

* * *

tested on: Nucleic Acid; test: Denaturation temperature change on binding on GC to poly(dGC)-poly(dGC); assay type: functional
# ΔTm >= 3 gives yes, anything below gives no

| sample-smiles | class-assignment |
| --- | --- |
| N=C(N)c1cccc(OCCCCCCOc2cccc(C(=N)N)c2)c1 | no |
| N=C(N)c1ccc(OCCCCOc2ccc(C(=N)N)cc2N)c(N)c1 | yes |
| COc1cc(C(=N)N)ccc1OCCCCCOc1ccc(C(=N)N)cc1OC | no |
| N=C(N)c1ccc(OCCCCOc2ccc(C(=N)N)cc2[N+](=O)[O-])c([N+](=O)[O-])c1 | yes |
| N=C(N)c1ccc(NCCCNc2ccc(C(=N)N)cc2N)c(N)c1 | yes |
| COc1cc(C(=N)N)ccc1OCCCOc1ccc(C(=N)N)cc1OC | yes |
| N=C(N)c1ccc(NCCCCCNc2ccc(C(=N)N)cc2N)c(N)c1 | yes |
| N=C(N)c1ccc(OCCCCCOc2ccc(C(=N)N)cc2)cc1 | yes |
| N=C(N)c1cccc(OCCCCOc2cccc(C(=N)N)c2)c1 | no |
| N=C(N)c1ccc(-c2cc3ccc(C(=N)N)cc3[nH]2)cc1 | yes |
| N=C(N)c1ccc(OCCCCOc2ccc(C(=N)N)cc2)cc1 | yes |

* * *

system: Nucleic Acid; assay: DNA binding property estimated by measuring denaturation temperature on GC to poly (dGC)-poly(dGC), normalized to ethidium bromide
Measured ΔTm accompanies every entry in the list below.

| sample-smiles | ΔTm |
| --- | --- |
| N=C(N)c1ccc(OCCCCCCOc2ccc(C(=N)N)cc2N)c(N)c1 | 0.5 |
| N=C(N)c1ccc(NCCCNc2ccc(C(=N)N)cc2)cc1 | 0.6 |
| N=C(N)c1ccc(OCCCCOc2ccc(C(=N)N)cc2N)c(N)c1 | 0.7 |
| N=C(N)c1ccc(OCCCCCOc2ccc(C(=N)N)cc2N)c(N)c1 | 0.6 |
| N=C(N)c1cccc(OCCCOc2cccc(C(=N)N)c2)c1 | 0.6 |
| N=C(N)c1cccc(OCCCCCOc2cccc(C(=N)N)c2)c1 | 0.4 |
| N=C(N)c1ccc(OCCCCCOc2ccc(C(=N)N)cc2)cc1 | 0.6 |
| COc1cc(C(=N)N)ccc1OCCCCCOc1ccc(C(=N)N)cc1OC | 0.5 |
| N=C(N)c1ccc(OCCOc2ccc(C(=N)N)cc2[N+](=O)[O-])c([N+](=O)[O-])c1 | 0.4 |
| N=C(N)c1ccc(OCCCCOc2ccc(C(=N)N)cc2)cc1 | 0.6 |
| N=C(N)c1ccc(NCCCCCCNc2ccc(C(=N)N)cc2N)c(N)c1 | 0.7 |

* * *

tested on: Nucleic Acid; experiment: Denaturation temperature change on binding on GC to poly(dGC)-poly(dGC); type: functional
Kindly apply the following: satisfied if ΔTm is less than 3, not satisfied in every other case.

| sample-smiles | class-assignment |
| --- | --- |
| Cn1cc(NC(=O)c2cc(NC(=O)c3cc(NC=O)cn3C)cn2C)cc1C(=O)NCCC(=N)N | satisfied |
| Cn1cc(NC(=O)c2cc(NC(=O)CNC(=N)N)cn2C)cc1C(=O)NCCC(=N)N | satisfied |
| N=C(N)c1ccc(OCCCCCOc2ccc(C(=N)N)cc2N)c(N)c1 | not satisfied |
| N=C(N)c1ccc(OCCCCCCOc2ccc(C(=N)N)cc2)cc1 | satisfied |
| N=C(N)c1ccc(NCCCCCNc2ccc(C(=N)N)cc2[N+](=O)[O-])c([N+](=O)[O-])c1 | not satisfied |
| N=C(N)c1ccc(NCCCCNc2ccc(C(=N)N)cc2N)c(N)c1 | not satisfied |
| N=C(N)c1ccc(OCCOc2ccc(C(=N)N)cc2[N+](=O)[O-])c([N+](=O)[O-])c1 | satisfied |
| N=C(N)c1ccc(NCCCCNc2ccc(C(=N)N)cc2)cc1 | satisfied |
| N=C(N)c1ccc(OCCCCOc2ccc(C(=N)N)cc2Cl)c(Cl)c1 | not satisfied |
| N=C(N)c1ccc(OCCCCCCOc2ccc(C(=N)N)cc2N)c(N)c1 | satisfied |
| N=C(N)c1ccc(OCCCOc2ccc(C(=N)N)cc2N)c(N)c1 | not satisfied |
| N=C(N)c1ccc(NCCCCCCNc2ccc(C(=N)N)cc2N)c(N)c1 | not satisfied |
| N=C(N)c1ccc(OCCCOc2ccc(C(=N)N)cc2)cc1 | not satisfied |
